Measured values drawn from ChEMBL document CHEMBL5236596 for this set.

- system.under.test: Glucocorticoid receptor (Homo sapiens, UniProt P04150)
- Sequence (P04150 whole entry): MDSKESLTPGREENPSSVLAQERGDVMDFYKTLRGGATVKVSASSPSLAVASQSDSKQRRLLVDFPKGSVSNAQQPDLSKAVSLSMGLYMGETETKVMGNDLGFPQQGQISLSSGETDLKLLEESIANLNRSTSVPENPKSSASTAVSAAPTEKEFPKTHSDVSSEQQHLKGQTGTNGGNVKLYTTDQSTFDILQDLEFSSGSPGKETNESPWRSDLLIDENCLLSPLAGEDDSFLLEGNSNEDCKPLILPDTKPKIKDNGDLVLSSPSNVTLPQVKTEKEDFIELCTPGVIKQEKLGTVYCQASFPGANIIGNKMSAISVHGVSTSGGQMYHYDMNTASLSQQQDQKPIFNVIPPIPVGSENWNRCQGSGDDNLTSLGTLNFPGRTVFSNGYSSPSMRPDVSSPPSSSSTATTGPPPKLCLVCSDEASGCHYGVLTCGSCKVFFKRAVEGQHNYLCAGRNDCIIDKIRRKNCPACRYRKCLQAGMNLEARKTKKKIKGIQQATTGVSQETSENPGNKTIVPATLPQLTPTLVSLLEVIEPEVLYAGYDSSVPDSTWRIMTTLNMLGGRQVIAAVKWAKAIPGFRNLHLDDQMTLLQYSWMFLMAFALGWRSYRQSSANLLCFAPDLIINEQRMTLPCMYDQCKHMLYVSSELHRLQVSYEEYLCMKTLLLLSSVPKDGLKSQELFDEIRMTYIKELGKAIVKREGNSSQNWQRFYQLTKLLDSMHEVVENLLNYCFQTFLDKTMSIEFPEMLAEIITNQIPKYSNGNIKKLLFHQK
- method: Modulation of glucocorticoid receptor (unknown origin) transfected in human HeLa cells assessed as transrepression by measuring inhibition of TNF-alpha induced NF-kappaB signalling incubated for 18 hrs by dual-luciferase reporter based assay
- Assay type: cell-based
readout.label: IC50 (nM)

test_smiles=O=C(c1ccco1)N1CCCc2cc(N(S(=O)(=O)c3ccc([N+](=O)[O-])cc3)S(=O)(=O)c3ccc([N+](=O)[O-])cc3)ccc21 system_under_test="Glucocorticoid receptor (Homo sapiens, UniProt P04150)" assay_value=2660
test_smiles=COc1cc(C)c(Cl)cc1S(=O)(=O)Nc1ccc2c(c1)CCCN2C(=O)C1CCCCC1 system_under_test="Glucocorticoid receptor (Homo sapiens, UniProt P04150)" assay_value=580
test_smiles=COc1cc(C)c(Cl)cc1S(=O)(=O)Nc1ccc2c(c1)CCCN2C(=O)c1ccc(C(F)(F)F)cc1 system_under_test="Glucocorticoid receptor (Homo sapiens, UniProt P04150)" assay_value=300
test_smiles=COc1ccc(C(=O)N2CCCc3cc(NS(=O)(=O)c4cc(Cl)c(C)cc4OC)ccc32)cc1 system_under_test="Glucocorticoid receptor (Homo sapiens, UniProt P04150)" assay_value=67

[I] O=C(c1ccco1)N1CCCc2cc(NS(=O)(=O)c3ccc4ccccc4c3)ccc21
[II] O=C(c1ccco1)N1CCCc2cc(NS(=O)(=O)c3ccc(Cl)c(C(F)(F)F)c3)ccc21
[III] COc1ccccc1S(=O)(=O)Nc1ccc2c(c1)CCCN2C(=O)c1ccco1
[IV] COc1cc(C)c(Cl)cc1S(=O)(=O)Nc1ccc2c(c1)N(C(=O)c1ccco1)CCC2
Q. Arrange the 4 compounds from largest to smallest IC50. Give the labels in the order specified.
A. II, III, I, IV
(II: 2450 nM, III: 900 nM, I: 190 nM, IV: 60 nM)
